# system_under_test: T1, GFP-9S library array, motif 4 ND N98E;D124Y (synthetic construct, N98E;D124Y)
# T1 chain: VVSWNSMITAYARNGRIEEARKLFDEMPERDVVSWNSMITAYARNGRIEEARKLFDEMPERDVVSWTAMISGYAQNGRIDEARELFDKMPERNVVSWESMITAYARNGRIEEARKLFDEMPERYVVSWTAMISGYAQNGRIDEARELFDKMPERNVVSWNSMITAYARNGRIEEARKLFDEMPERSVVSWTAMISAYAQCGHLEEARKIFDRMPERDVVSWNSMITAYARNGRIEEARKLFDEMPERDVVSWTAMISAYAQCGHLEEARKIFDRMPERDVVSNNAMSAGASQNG
# protocol_details: high-throughput RNA pulldown from lysate on Ni-NTA beads; HRP: 50 mM Tris pH 8, 150 mM NaCl, 1 mM beta-mercaptoethanol, 50 ug/ml BSA, 3 ug/ml yeast RNA, 0.5% heparin; ITC and FP: Tris pH 8, 200 mM KCl, 5% glycerol; MST: 50 mM Tris pH 8, 200 mM NaCl, 1 mM DTT, BSA, heparin, 0.05% Tween 20
# recorded_conditions: tags: N-terminal His-eGFP; label: 5' Cy5
quantity: Kd (nM)
Respond numerically; units are nM and should not be typed.

// sample AUUACACGUGA (ssRNA) [Cy5-rpoA] , its Kd was 231

// sample AUUAGACGUGA (ssRNA) [Cy5-rpoA-G] , its Kd was 187

These entries and their values trace back to paper PMC8809517.
